- procedureDetails: Leishmania major promastigote growth inhibition, primary screen (AID 1063);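 further: promastigotes grown with compound for 44 hours at 28 °C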
- experimentalSetup: Leishmania major promastigotes, resazurin fluorescence viability; at 10 µM
Hit rate of the full screen: of about 200,000 compounds, about 18,000 (9%) were called active. No stated cut-off is given here; in the data, active means inhibition above about 50%; inactive means the rest. Shown is part of a subset that was picked to be rich in actives.
# valid calls are true (active), false (inactive); nothing else

Can you look up the reported call for CCn1c(SCc2ccccc2)nc2c(c1=O)SCC2 for me?
false

====

- procedureDetails: Leishmania major promastigote growth inhibition, primary screen (AID 1063);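 further: promastigotes grown with compound for 44 hours at 28 °C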
- experimentalSetup: Leishmania major promastigotes, resazurin fluorescence viability; at 10 µM
Hit rate of the full screen: of about 200,000 compounds, about 18,000 (9%) were called active. Rule as the data show it: active = inhibition above about 50%; inactive = the rest. The sample holds actives, similar compounds and a random draw of the others, so the mix is not that of the screen.
# valid calls are active, inactive; nothing else

Can you look up the reported call for Cc1nc2ccccc2n1CC(=O)N/N=C/c1cccnc1 for me?
inactive

Can you look up the reported call for CSc1ncccc1C(=O)OCc1ccc(Br)cc1 for me?
inactive

Can you look up the reported call for O=C(NCc1ccco1)C(=O)c1cn(CC(=O)N2CCCCCC2)c2ccccc12 for me?
inactive

Can you look up the reported call for COc1cccc(OC)c1C(=O)OCC(=O)/C(C#N)=C(\C)N for me?
inactive

Can you look up the reported call for CCc1ccc(CN(C)C(=O)CCc2nnc(-c3ccc(-c4ccccc4)cc3)o2)nc1 for me?
inactive

Can you look up the reported call for Cc1c(NC(=O)CSc2cccc3cccnc23)c(=O)n(-c2ccccc2)n1C for me?
inactive

Can you look up the reported call for CCN(CC)C(=O)Oc1ccc(OC(=O)N(CC)CC)cc1 for me?
inactive

Can you look up the reported call for C/C(=N\N)c1c(-c2ccccc2)c2cc(Br)ccc2[nH]c1=O for me?
inactive

Can you look up the reported call for CCCc1nnc(SCC(=O)N2C(C)CCCC2C)n1CC (stereo unspecified) for me?
inactive

Can you look up the reported call for CCCCn1c(N)c(N2CCOCC2)c(=O)n(CC(=O)NCCc2ccccc2)c1=O for me?
inactive

Can you look up the reported call for Cc1cc(C)c(OCCN2CC(C)OC(C)C2)c(Br)c1 (stereo unspecified) for me?
active

====

What inhibition was measured for each of the following?
- procedureDetails: Leishmania major promastigote growth inhibition, primary screen (AID 1063);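 further: promastigotes grown with compound for 44 hours at 28 °C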
- experimentalSetup: Leishmania major promastigotes, resazurin fluorescence viability; at 10 µM; hits give high values
The whole screen tested about 200,000 compounds, of which about 18,000 (9%) were called active. Only a selection was taken, and actives are over-represented in it overall.
One number for each entry, in %.

Solved entries (count: 5):
COC(=O)c1ccccc1NC(=O)c1ccccc1NS(C)(=O)=O ... -0.37
Cc1ccc(OCCCC(=O)N2CCOCC2)c(C)c1 ... -2.9
COc1cccc(CC2(CO)CCCN(Cc3nc(-c4cccs4)oc3C)C2)c1 (configuration not stated) ... 2.57
Cc1ccc(-c2cc(C(F)(F)F)n3ncc(C(=O)N4CCCCC4c4cccnc4)c3n2)cc1 (configuration not stated) ... 89.6
O=C(CCc1ccccc1)NCCc1cccs1 ... -9.15

Give me inhibition for each of these molecules, listed below.
1. COC(=O)C1=C(C)N(C(C)c2ccccc2)C(=O)/C1=C\c1ccco1 (configuration not stated)
2. NC(=O)N1CCc2ccccc21

[12.7, -6.03]

Give me inhibition for each of these molecules, listed below.
1. C=CCN(CC=C)CCOc1ccccc1[N+](=O)[O-]
2. CN(C)CCCN(C(=O)COc1ccccc1)c1nc2c(Cl)cccc2s1
3. COc1cccc(OC)c1C(=O)NC(=S)NCc1ccco1
4. Cc1ccccc1CC1(CO)CCCN(C(=O)c2cc(-c3ccccc3)no2)C1 (configuration not stated)
5. Cc1ccc(-n2c(C)cc(/C=N\NC(=O)CC(=O)NC(C)C)c2C)cc1
6. CCOC(=O)N1CCN(C(=O)CSc2ccc(Cl)cc2)CC1
7. COc1cc(NC(=S)NCc2ccco2)c(OC)cc1Cl

[12.2, 1.9, 0.66, -3.77, -3.17, -6.22, 7.75]

Give me inhibition for each of these molecules, listed below.
1. COCCNC(=O)c1ccccc1NS(=O)(=O)c1ccc(C)c([N+](=O)[O-])c1
2. CCN1CCN(c2ccc(NC(=O)c3cnccn3)cc2)CC1
3. Cc1cc(C(=O)Cn2cnc3cc([N+](=O)[O-])ccc3c2=O)c(C)n1CC1CCCO1 (configuration not stated)
4. Fc1ccccc1C(c1nnnn1Cc1ccc2c(c1)OCO2)N1CCN(Cc2ccccc2)CC1 (configuration not stated)
5. CC(C)n1c(=O)[nH]c2cc(C(=O)Nc3ccccc3)ccc21

1: 54.5; 2: -5.28; 3: -3.96; 4: 26.7; 5: -2.18

Give me inhibition for each of these molecules, listed below.
1. COc1ccccc1Cn1c(C)nnc1-c1cnn(C)c1N
2. CC(=O)N(CCCN(C)C)c1nc2ccc(C)cc2s1
3. N#Cc1c(-c2ccc(F)cc2)nc(-c2ccccc2)[nH]c1=O
4. CC1=NNC(=O)C1CCC(=O)N/N=C\c1cccc(Cl)c1 (configuration not stated)

[0.00407, -6.81, 3.06, 0.75]

====

- procedureDetails: Leishmania major promastigote growth inhibition, primary screen (AID 1063);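 further: promastigotes grown with compound for 44 hours at 28 °C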
- experimentalSetup: Leishmania major promastigotes, resazurin fluorescence viability; at 10 µM; hits give high values
About 18,000 (9%) of roughly 200,000 compounds were called active. The sample as a whole holds a higher share of actives than the screen did.
What inhibition was measured for each of the following?
Give bare numbers, in %.

Give me inhibition for each of these compounds, listed below.
1. S=c1[nH]ccn1-c1ccc(Cl)cc1
2. CCOCCCn1c(NN)nc2ccccc2c1=O
3. Cc1oc(-c2ccccc2F)nc1CS(=O)(=O)CC(=O)NCCCN(C)C1CCCCC1
4. COc1ccc(NC(C(=O)Nc2cccc(C(C)=O)c2)c2ccccc2)cc1 (stereo unspecified)
5. CC(=O)c1cccc(NC(=O)[C@@H](NC(N)=O)C(C)C)c1
6. Cc1cc(C)nc(Nc2cc([N+](=O)[O-])ccc2C)n1

1: -8.82; 2: -5.56; 3: 2.98; 4: 94.4; 5: 6.23; 6: 2.27

====

What inhibition was measured for each of the following?
- procedureDetails: Leishmania major promastigote growth inhibition, primary screen (AID 1063);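 further: promastigotes grown with compound for 44 hours at 28 °C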
- experimentalSetup: Leishmania major promastigotes, resazurin fluorescence viability; at 10 µM; hits give high values
Hit rate of the full screen: of about 200,000 compounds, about 18,000 (9%) were called active. Shown is part of a subset that was picked to be rich in actives.
Give bare numbers, in %.

Solved entries (count: 10):
C=CCn1c(SCC(=O)CC(=O)OCC)nc2cc(C(=O)N3CCC(C(N)=O)CC3)ccc2c1=O ... -4.29
O=C(c1ccc(CSc2ccccc2)cc1)N1CCCCCC1 ... -6.75
COc1ccccc1N1CCN(C(=O)c2ccc(S(=O)(=O)N3CCCCC3)cc2)CC1 ... 59.5
COc1ccccc1N1CCN(C(=O)c2c(-c3c(Cl)cccc3Cl)noc2C)CC1 ... 98.5
O=C(c1ccc(S(=O)(=O)c2ccccc2)cc1)N1CCCCCC1 ... 55.1
O=C(Cn1cnc([N+](=O)[O-])n1)NCCc1ccccc1 ... 21.8
COc1cc2c(cc1OC)CN(C(=O)c1ccc(S(=O)(=O)N3CCCCCC3)cc1)CC2 ... 24.6
Cc1ccccc1-n1nc(SCC(=O)O)sc1=S ... -4.01
COc1cccc(NC(=S)NCc2ccccn2)c1 ... -4.83
COc1ccc(C2=NO[C@@H]3C(=O)N(Cc4ccccc4)C(=O)[C@H]23)cc1OC ... -2.75

Give me inhibition for each of these compounds, listed below.
1. COc1ccc(C2Nc3ccccc3C(=O)N2c2ccc(F)cc2)cc1Cn1nnc2ccccc21 (configuration not stated)
2. O=C(CN(c1cccc(Cl)c1)S(=O)(=O)c1ccccc1)NN=C1CCCC1
3. CSc1cccc(NC(=S)N(Cc2ccccc2)Cc2ccccn2)c1
4. CC(=O)c1c(C)[nH]c(C(=O)OCC(=O)Nc2cc(S(=O)(=O)N3CCCCC3)ccc2C)c1C
5. CCc1ccc(Nc2nnc(SCC(=O)c3ccc4c(c3)NC(=O)CO4)s2)cc1
6. CC(C(=O)NCC1CCCCC1)N(C)Cc1cccc(Cl)c1 (configuration not stated)

[20.3, 12.4, 17.4, 95.4, -5.5, -1.13]

Give me inhibition for each of these compounds, listed below.
1. COc1ccc(C2Nc3ccccc3C(=O)N2Cc2ccccc2)cc1Cn1nnc2ccccc21 (configuration not stated)
2. CC(Sc1nnnn1C1CCCCC1)C(=O)O (configuration not stated)

1: 97; 2: -5.74

Give me inhibition for each of these compounds, listed below.
1. COc1cccc(NC(=S)N(Cc2ccc(C)cc2)Cc2ccccn2)c1
2. Oc1ccccc1/C=N/n1c(-c2cccs2)n[nH]c1=S

1. 94.4
2. -8.08

Give me inhibition for each of these compounds, listed below.
1. CC(=O)c1ccc(-c2nnc(CCC(=O)N(C)Cc3cnc4ccccn34)o2)s1
2. Cc1ccsc1/C=N/n1c(=S)[nH]nc(C)c1=O

[-0.67, 99]
